Give measured GI50 for each item. Keep answers brief.
# System: HCC-2998 colon
# Procedure Summary: NCI tumour cell line growth inhibition, 48 h

Study these solved cases before continuing.
[
  {
    "Compound": "CC(C)(C)c1nc(-c2cccc(NS(=O)(=O)c3c(F)cccc3F)c2F)c(-c2ccnc(N)n2)s1",
    "GI50": "24.1 µM"
  },
  {
    "Compound": "COc1ccccc1C1C(C#N)=C(N)Oc2cc(O)ccc21 (stereo not given)",
    "GI50": "11.7 µM"
  },
  {
    "Compound": "O=C(CN(/C=C/C(=O)C(F)(F)F)c1ccccc1)c1ccc(Cl)cc1",
    "GI50": "14.7 µM"
  }
]

Consider the following items and state reported GI50 for each.
1. NC(CSC(c1ccccc1)(c1ccccc1)c1ccc(F)cc1)C(=O)O (stereo not given)
2. c1cc[c]([Sn]([O]c2cccc3cccnc23)([O]c2cccc3cccnc23)[c]2ccccc2)cc1

Return:
1: 0.438 µM; 2: 2.48 µM

====

Please respond with reported GI50 for every item in the list.
# Test system: RXF 393 renal
# Procedure Summary: NCI tumour cell line growth inhibition, 48 h

For orientation, consider the following solved cases.
[
  {
    "Compound": "COc1ccc2c(c1)O/C(=C\\c1cccc(OCC(=O)Nc3nc(C)c(C)s3)c1)C2=O",
    "Tested On": "RXF 393 renal",
    "GI50": "1060 nM"
  },
  {
    "Compound": "COc1ccc(-c2nsc3c2NC(=O)CC3c2cccc(Cl)c2)cc1 (stereo not drawn)",
    "Tested On": "RXF 393 renal",
    "GI50": "2570 nM"
  },
  {
    "Compound": "Cn1cc(C2=C(c3ccccc3C(F)(F)F)C(=O)NC2=O)c2ccccc21",
    "Tested On": "RXF 393 renal",
    "GI50": "5170 nM"
  }
]

For every listed record, write down its GI50.
1. O=C(Nc1ccc2c(c1)OCCO2)C(=O)c1c[nH]c2ccccc12
2. CC12OC(C(=O)C13CCC3)C1C(=O)c3ccc4c(ccc5ccccc54)c3C(=O)C12 (stereo not drawn)
3. CC/C(Cc1ccccc1)=C(/c1ccc(O)cc1)c1ccc(OCCN2CCCC2)cc1

Return:
1: 2590 nM; 2: 13300 nM; 3: 1560 nM

====

Provide the recorded TGI for the entries that follow.
# Tested on: HS 578T breast
# Procedure Summary: NCI tumour cell line growth inhibition, 48 h

Solved entries (count: 5):
[
  {
    "Compound": "O=C1NC(=Nc2ccccc2Cl)N/C1=C\\c1ccc(Cl)cc1Cl",
    "TGI": "> 100 µM"
  },
  {
    "Compound": "CC(C)=C[C@@H]1O[C@H](O)[C@@H]([C@H]2CC[C@@]3(C)[C@@H]4CC[C@H]5C(C)(C)C(=O)CC[C@@]56C[C@@]46CC[C@]23C)[C@@H]1O",
    "TGI": "48.4 µM"
  },
  {
    "Compound": "[N-]=[N+]=Nc1ccc2c(c1)Sc1ccccc1N2CCCCN1CCN(C(=O)CCNC(=O)Cc2ccc(C(=O)c3ccccc3)cc2)CC1",
    "TGI": "> 100 µM"
  },
  {
    "Compound": "C=CC[C@]1(C2=NC(C)(C)CO2)c2ccccc2-c2ccccc2[C@H]1C(C)=O",
    "TGI": "25.1 µM"
  },
  {
    "Compound": "C#C[C@]1(O)CC[C@H]2[C@@H]3CCC4=C/C(=N/OC(=O)c5cccc6c(=O)c7ccccc7[nH]c56)CCC4[C@H]3CC[C@@]21CC (stereo partly specified)",
    "TGI": "> 100 µM"
  }
]

Next up:
Enquiry: Fill in: TGI of COc1ccc(C2C3=C(COC3=O)OC(C)(C)Oc3cc4c(cc32)OCO4)cc1OC (stereo unspecified) is ___
Return: > 100 µM

====

# System: MDA-N
# Procedure Summary: NCI tumour cell line growth inhibition, 48 h
Provide the reported TGI of each item.

// known answers, use as guide
[
  {
    "Compound": "C#C[C@]1(O)CC[C@H]2[C@@H]3CCC4=C/C(=N/OC(=O)c5cccc6c(=O)c7ccccc7[nH]c56)CCC4[C@H]3CC[C@@]21CC (stereo partly drawn)",
    "TGI": "> 100 µM"
  },
  {
    "Compound": "C/C(=N\\NC(N)=S)c1sc(-n2nc(-c3ccccc3)cc2-c2ccccc2)nc1C",
    "TGI": "> 100 µM"
  },
  {
    "Compound": "COc1cc(S(=O)(=O)Nc2ccc(-c3csc(N4C(=O)C(Cl)C4c4cccs4)n3)cc2)ccc1Cl (stereo not drawn)",
    "TGI": "> 100 µM"
  }
]

Give TGI for each listed item.
1. N#Cc1c(-c2ccccc2)cc(Nc2ccc(Cl)cc2)n2c1nc1ccccc12
2. COc1ccc(/C=C/C(=O)Oc2ccccc2OC)cc1
3. COc1ccc2c(c1OC)C(=O)O[C@@H]2[C@H]1c2c(cc3c(c2OC)OCO3)CCN1C
4. C=CCn1c(-c2ccc(Cl)cc2)csc1=Nc1ccccc1OC
5. CC(C)=C[C@@H]1O[C@H](O)[C@@H]([C@H]2CC[C@@]3(C)[C@@H]4CC[C@H]5C(C)(C)C(=O)CC[C@@]56C[C@@]46CC[C@]23C)[C@@H]1O
6. CCNC(=S)NNC(=O)CSc1nc2ccc(I)cc2c(=O)n1Cc1ccccc1

Return:
1. > 41.6 µM
2. > 100 µM
3. > 100 µM
4. > 59.6 µM
5. 31.3 µM
6. > 100 µM

====

Could you please report measured GI50 for the items listed next?
# System: SK-MEL-2 melanoma
# Procedure Summary: NCI tumour cell line growth inhibition, 48 h

[
  {
    "Smiles Code": "COc1ccc(-c2nn3ncccc3c2-c2ccnc(Nc3ccc4c(c3)OCCO4)n2)cc1",
    "GI50": "7.39 µM"
  },
  {
    "Smiles Code": "CCOC(=O)C#Cc1c(C(=O)OCC)nnn1[C@@H]1O[C@H](CO)[C@H]2OC3(CCCCC3)O[C@H]21",
    "GI50": "17.7 µM"
  }
]

Enquiry: Which value of GI50 has been reported for Cc1c(C)c2c(c(C)c1OCC(=O)O)CC[C@@](C)(CCC[C@@H](C)CCC[C@@H](C)CCCC(C)C)O2 in the records?
Return: 64.4 µM

====

Would you mind telling me the reported log10 of TGI of each entry?
# Test system: COLO 205 colon
# Procedure Summary: NCI tumour cell line growth inhibition, 48 h
# log10 transformed; quantity=TGI; unit=µM

Example compounds with recorded log10 of TGI:
[
  {
    "Smiles Code": "CC(C)=C[C@@H]1O[C@H](O)[C@@H]([C@H]2CC[C@@]3(C)[C@@H]4CC[C@H]5C(C)(C)C(=O)CC[C@@]56C[C@@]46CC[C@]23C)[C@@H]1O",
    "Tested On": "COLO 205 colon",
    "Experimental Result": 1.64
  },
  {
    "Smiles Code": "NCCOc1ncccc1/C=C1\\c2ccccc2-c2ccc([N+](=O)[O-])cc21",
    "Tested On": "COLO 205 colon",
    "Experimental Result": -0.46
  },
  {
    "Smiles Code": "Cc1nc(Nc2ccc(Cl)c(Cl)c2)sc1C(=O)/C=C/c1ccc2c(c1)OCO2",
    "Tested On": "COLO 205 colon",
    "Experimental Result": 1.78
  }
]

Provide log10 of TGI for all items below, preserving their order.
1. CCOc1ccc(C(C)=O)cc1NC(=O)c1cccc(-c2nnn(CC)n2)c1
2. O=C1C=C(Nc2ccc(S(=O)(=O)Nc3ncccn3)cc2)c2ccccc2C1=O

Return:
0.29
1.60

====

# System: SN12C renal
# Procedure Summary: NCI tumour cell line growth inhibition, 48 h
Readout Name: TGI

Look up TGI for the entries below, preserving their order.
1. Nc1nc2c(ccc3ccccc32)s1
2. COc1ccc(/C=C/C(=O)Oc2ccccc2OC)cc1
3. CC(=O)NC1C(OCc2ccccc2)OC(CO)C(O)C1OCC(=O)N[C@@H](C)C(=O)N[C@H](CCC(=O)NCCNc1ccc([N+](=O)[O-])c2[nH]c3ccccc3c(=O)c12)C(N)=O (stereo not given in full)
4. CC1=C(C#N)C(/C=C(\Cl)c2ccc(F)cc2)C(C#N)=C(C)N1
5. NC(CSC(c1ccccc1)(c1ccccc1)c1ccc(F)cc1)C(=O)O (stereo not given)
6. N#Cc1c(-c2ccc([N+](=O)[O-])cc2)cc(-c2ccc(Nc3ccnc4cc(Cl)ccc34)cc2)nc1N
7. O=C(NCc1ccc2ccc3cccnc3c2n1)c1ccc[n+](Cc2ccccc2)c1
8. COc1cc(C2c3cc4c(cc3[C@@H](N(C)c3ccc(N(C)C)cc3)C3COC(=O)C23)OCO4)cc(OC)c1O (stereo not given in full)

Return:
1: > 100 µM; 2: 58.2 µM; 3: > 100 µM; 4: > 100 µM; 5: > 70.7 µM; 6: 17.6 µM; 7: > 100 µM; 8: 18.1 µM

Field: TGI. Fill in for each record below.
1. CN(C)N=Nc1ccc2[nH]c(=O)[nH]c2c1
2. OC12c3ccccc3C1CCCCCC21OCCCO1 (stereo not given)

Return:
1. > 100 µM
2. > 100 µM

Data origin, for the record: PubChem BioAssay (NCI)
